Numbers sourced from patent US20070043110A1.

System: RT4
Assay: Antitumor activity by MTT assay, RT4
Conditions: Homo sapiens, RT-4, read-out: Vitamins Alone, Vit K3 50% Cytotoxic Dose
pIC50: −log10 of the molar value.
Quantity Measured: pIC50

INSERT INTO assay_data (compound, target_of_assay, numeric_readout) VALUES
  ('CC1=CC(=O)c2ccccc2C1=O [Vitamin K3, 2-Methyl-1,4-Naphthoquinone]', 'RT4', 4.89);

###

System: TCCSUP
Assay: Antitumor activity by MTT assay, TCCSUP
Settings: Homo sapiens, TCC-SUP, read-out: Vitamins Alone, Vit K3 50% Cytotoxic Dose
pIC50: −log10 of the molar value.
Quantity Measured: pIC50

INSERT INTO assay_data (molecule, numeric_readout) VALUES
  ('CC1=CC(=O)c2ccccc2C1=O [Vitamin K3, 2-Methyl-1,4-Naphthoquinone]', 5.20);

###

Tested on: Caki-1
Assay: Antitumor activity by MTT assay, Caki-1
Conditions: Homo sapiens, CAKI-1, read-out: Vitamins Alone, Vit K3 50% Cytotoxic Dose
pIC50: −log10 of the molar value.
Quantity Measured: pIC50

INSERT INTO results (compound, quantity_measured, numeric_readout) VALUES
  ('CC1=CC(=O)c2ccccc2C1=O [Vitamin K3, 2-Methyl-1,4-Naphthoquinone]', 'pIC50', 4.71);

###

Test system: PC3
Test: Antitumor activity by MTT assay, PC3
Settings: Homo sapiens, PC-3, read-out: Vitamins Alone, Vit C 50% Cytotoxic Dose
pIC50: −log10 of the molar value.
Quantity Measured: pIC50

INSERT INTO assay_data (molecule, quantity_measured, numeric_readout) VALUES
  ('O=C1O[C@H]([C@@H](O)CO)C([O-])=C1O.[Na+] [Vitamin C, Sodium Ascorbate]', 'pIC50', 2.63);

###

System: RT4
Assay: Antitumor activity by MTT assay, RT4
Conditions: Homo sapiens, RT-4, read-out: Vitamins Alone, Vit C 50% Cytotoxic Dose
Quantity Measured: IC50 (µM)

INSERT INTO results (compound, units_of_measure, numeric_readout) VALUES
  ('O=C1O[C@H]([C@@H](O)CO)C([O-])=C1O.[Na+] [Vitamin C, Sodium Ascorbate]', 'µM', 2430);

###

Test system: PC3
Experiment: Antitumor activity by MTT assay, PC3
Details: Homo sapiens, PC-3, read-out: Vitamins Alone, Vit K3 50% Cytotoxic Dose
pIC50: −log10 of the molar value.
Quantity Measured: pIC50

INSERT INTO results (compound, quantity_measured, numeric_readout) VALUES
  ('CC1=CC(=O)c2ccccc2C1=O [Vitamin K3, 2-Methyl-1,4-Naphthoquinone]', 'pIC50', 4.94);

###

Test system: SKOV3
Assay: Antitumor activity by MTT assay, SKOV3
Settings: Homo sapiens, SK-OV-3, read-out: Vitamins Alone, Vit K3 50% Cytotoxic Dose
Quantity Measured: IC50 (µM)

INSERT INTO results (compound_structure_string, target_of_assay, quantity_measured, units_of_measure, numeric_readout) VALUES
  ('CC1=CC(=O)c2ccccc2C1=O', 'SKOV3', 'IC50', 'µM', 22);

###

Tested on: CAOV-3 cell line
Experiment: Cytotoxicity (CD50), CAOV-3
Format: cell-based
Conditions: Homo sapiens, Caov-3; read-out: CD50, VK3 alone
pIC50: −log10 of the molar value.
Quantity Measured: pIC50

INSERT INTO results (compound, numeric_readout) VALUES
  ('CC1=CC(=O)c2ccccc2C1=O [Vitamin K3, 2-Methyl-1,4-Naphthoquinone]', 4.66);
